Parameter: TGI. Scope: all listed entries.
# Tested on: OVCAR-5 ovarian
# experimental_protocol: NCI tumour cell line growth inhibition, 48 h

{"compound": "O=C(N/N=C/c1ccccc1O)C(O)(c1ccccc1)c1ccccc1", "TGI": "> 100 µM"}
{"compound": "CC1=CC=C2c3ccccc3C=CN2C(=O)C1", "TGI": "> 100 µM"}
{"compound": "C[N+](C)(C)CC(=O)N/N=C(\\CCC(=O)NCCc1ccccc1)CC(=O)c1ccccc1", "TGI": "> 100 µM"}
{"compound": "CCCc1cc(=O)oc2c(C=O)c(O)cc(O)c12", "TGI": "74.4 µM"}
{"compound": "N#CC1(C#N)NC(c2cccnc2)C(C#N)(C#N)NC1c1cccnc1 (stereo not given)", "TGI": "> 100 µM"}
{"compound": "Cc1nnc(N=Nc2c(O)[nH]c3c(Cl)cc(Cl)cc23)n1N", "TGI": "> 100 µM"}
{"compound": "C#Cc1c(C)c(/C=C/C(C)=C/C=C/C(C)=C/C(=O)OC)n(C)c1C", "TGI": "> 100 µM"}
{"compound": "CCCCC(C(=O)N/N=C/c1ccc([N+](=O)[O-])o1)C(=O)N/N=C/c1ccc([N+](=O)[O-])o1", "TGI": "7.23 µM"}
{"compound": "Cc1ccccc1N=CN(C)C", "TGI": "> 100 µM"}
{"compound": "CO[C@H]1ON=C(c2c(C)cc(C)cc2C)[C@@H]1C1(c2ccccc2)ON=C(c2c(C)cc(C)cc2C)O1 (stereo not given in full)", "TGI": "> 100 µM"}

====

# Tested on: LOX IMVI melanoma
# experimental_protocol: NCI tumour cell line growth inhibition, 48 h
Reported TGI is given for each of the following compounds.
readout_label: TGI

{"compound": "CC(C)(C)OC(=O)[C@@H]1CCC(=S)N1Cc1ccccc1", "target_or_test_system": "LOX IMVI melanoma", "observed_result": "> 100 µM"}
{"compound": "O=C1Oc2ccccc2C(=O)/C1=C/N1C(=O)/C(=C/c2ccc3c(c2)OCO3)SC1=S", "target_or_test_system": "LOX IMVI melanoma", "observed_result": "> 58.8 µM"}
{"compound": "N.N.N.N.O=NN1CCCCCC1(P(=O)([O-])[O-])P(=O)([O-])[O-].[Pt+4].[Pt+4]", "target_or_test_system": "LOX IMVI melanoma", "observed_result": "> 100 µM"}
{"compound": "O=Nc1ccc(O)c2ccccc12", "target_or_test_system": "LOX IMVI melanoma", "observed_result": "2.28 µM"}
{"compound": "CC1CN(c2ccc(Cl)cc2)CC(C)(C)OC(=O)O1 (stereo unspecified)", "target_or_test_system": "LOX IMVI melanoma", "observed_result": "> 100 µM"}
{"compound": "COc1cccc(Cn2c(-c3nonc3N)nc3ccccc32)c1", "target_or_test_system": "LOX IMVI melanoma", "observed_result": "> 100 µM"}
{"compound": "C=C(C)[C@@H]1CC[C@]2(C(N)=O)CC[C@]3(C)[C@H](CC[C@@H]4[C@@]5(C)CC[C@H](O)C(C)(C)[C@@H]5CC[C@]43C)[C@@H]12", "target_or_test_system": "LOX IMVI melanoma", "observed_result": "3.23 µM"}
{"compound": "C[C@@H](N)C1CCC(C(=O)Nc2ccncc2)CC1 (stereo partly specified)", "target_or_test_system": "LOX IMVI melanoma", "observed_result": "> 100 µM"}
{"compound": "CN(C)CCCNC(=O)c1cc(NC(=O)c2cc(NS(=O)(=O)c3ccc4c(c3)C(=O)c3ccccc3C4=O)cn2C)cn1C", "target_or_test_system": "LOX IMVI melanoma", "observed_result": "> 100 µM"}
{"compound": "O=Cc1ccc(-c2ccc(-c3nc4ccccc4[nH]3)cc2)s1", "target_or_test_system": "LOX IMVI melanoma", "observed_result": "64.6 µM"}
{"compound": "CCN(CC)c1ccc(C2CC(c3cc(OC)c(OC)c(OC)c3)=NN2)cc1 (stereo unspecified)", "target_or_test_system": "LOX IMVI melanoma", "observed_result": "> 42 µM"}
{"compound": "C=C(C)CNC(=S)N(N)c1ccc(OC)cc1", "target_or_test_system": "LOX IMVI melanoma", "observed_result": "> 100 µM"}
{"compound": "C1CCC(OCc2nnn3c2CCC3)OC1 (stereo unspecified)", "target_or_test_system": "LOX IMVI melanoma", "observed_result": "> 100 µM"}
{"compound": "[O-]c1c[n+](CCCC[n+]2cc([O-])on2)no1", "target_or_test_system": "LOX IMVI melanoma", "observed_result": "> 100 µM"}
{"compound": "N#CC1(C#N)NC(c2cccnc2)C(C#N)(C#N)NC1c1cccnc1 (stereo unspecified)", "target_or_test_system": "LOX IMVI melanoma", "observed_result": "> 100 µM"}
{"compound": "CCCCCCCCCCCCCCCCOCC(CN(C)CCN(C)C)OCCCCCCCCCCCCCCCC (stereo unspecified)", "target_or_test_system": "LOX IMVI melanoma", "observed_result": "> 100 µM"}
{"compound": "COC(=O)[C@@]1(Cc2ccccc2)[C@H]2c3cc(C(=O)N4CCCC4)n(Cc4ccc(OC)c(OC)c4)c3C[C@H]2CN1C(=O)c1ccccc1", "target_or_test_system": "LOX IMVI melanoma", "observed_result": "16.8 µM"}
{"compound": "CC(C)OC(=O)Nc1cccc(Cl)c1", "target_or_test_system": "LOX IMVI melanoma", "observed_result": "> 100 µM"}
{"compound": "COc1ccc(N=Nc2c(C)c(C#N)c(=S)n(C3OC(COC(C)=O)C(OC(C)=O)C(OC(C)=O)C3OC(C)=O)c2C)cc1 (stereo unspecified)", "target_or_test_system": "LOX IMVI melanoma", "observed_result": "> 100 µM"}
{"compound": "COc1cccc(C(=O)Nc2c3ccccc3nc3ccccc23)c1OC", "target_or_test_system": "LOX IMVI melanoma", "observed_result": "> 100 µM"}
{"compound": "C=CCCOC(=O)CO[N+](=O)[O-]", "target_or_test_system": "LOX IMVI melanoma", "observed_result": "> 100 µM"}

====

Below, each of the compounds is paired with its reported TGI value.
# Test system: U251 CNS
# experimental_protocol: NCI tumour cell line growth inhibition, 48 h
readout_label: TGI

{"compound": "COc1ccc(-c2nsc3c2NC(=O)CC3c2ccc(F)cc2)cc1 (centres undefined)", "readout_label": "TGI", "observed_result": "> 100 µM"}
{"compound": "Cc1ccc(S(=O)(=O)Oc2ccc([N+](=O)[O-])cc2[N+](=O)[O-])cc1", "readout_label": "TGI", "observed_result": "14.5 µM"}
{"compound": "Cc1cccc(-c2nn3c(c2-c2ccnc4ccc(C(N)=O)cc24)CCC3)n1", "readout_label": "TGI", "observed_result": "> 100 µM"}
{"compound": "O=C1Oc2ccccc2C(=O)/C1=C/N1C(=O)/C(=C/c2ccc3c(c2)OCO3)SC1=S", "readout_label": "TGI", "observed_result": "15 µM"}
{"compound": "CC(=O)OCc1ccc2oc(=O)c(C(=O)Oc3cccc(Cl)c3)cc2c1", "readout_label": "TGI", "observed_result": "> 100 µM"}
{"compound": "Nc1ccc(Oc2ccc(C3(c4ccc(Oc5ccc(N)cc5)cc4)C4CC5C6CC7CC5C3C(C7)C6C4)cc2)cc1", "readout_label": "TGI", "observed_result": "> 70 µM"}
{"compound": "O=C(Nc1cc2c(=O)[nH]c3ccccc3c2oc1=O)c1cnccn1", "readout_label": "TGI", "observed_result": "> 100 µM"}
{"compound": "O=C(Nc1cccc(NC(=O)C(=O)C2CCC3=C(Sc4ccccc4N3)C2=O)n1)C(=O)C1CCC2=C(Sc3ccccc3N2)C1=O (centres undefined)", "readout_label": "TGI", "observed_result": "> 100 µM"}
{"compound": "C#Cc1c(C)c(/C=C/C(C)=C/C=C/C(C)=C/C(=O)OC)n(C)c1C", "readout_label": "TGI", "observed_result": "> 100 µM"}

====

# System: DMS 114 small cell lung
# experimental_protocol: NCI tumour cell line growth inhibition, 48 h
# reported TGI; entries follow

{"molecule": "O=C1OC2C(O)COC2(O)C1(O)C(C[N+](=O)[O-])c1ccc(Cl)cc1 (stereo not given)", "target_or_test_system": "DMS 114 small cell lung", "TGI": "9.99 µM"}
{"molecule": "c1ccc(N=c2snc3scc(-c4ccccc4)n23)cc1", "target_or_test_system": "DMS 114 small cell lung", "TGI": "88.8 µM"}
{"molecule": "CCCCCCCCCCCCCCCCOCC(CN(C)CCN(C)C)OCCCCCCCCCCCCCCCC (stereo not given)", "target_or_test_system": "DMS 114 small cell lung", "TGI": "> 100 µM"}
{"molecule": "COc1c(C)c2c(c3c1c(=O)c1ccccc1n3C)C=CC(C)(C)O2", "target_or_test_system": "DMS 114 small cell lung", "TGI": "43 µM"}
{"molecule": "CC(/C=C/C(=O)c1sc(-n2nc(-c3ccccc3)cc2-c2ccccc2)nc1C)=C\\c1ccccc1", "target_or_test_system": "DMS 114 small cell lung", "TGI": "> 100 µM"}
{"molecule": "O=C1OC(c2ccccc2)=N/C1=C\\c1ccc2ccccc2c1", "target_or_test_system": "DMS 114 small cell lung", "TGI": "> 100 µM"}
{"molecule": "COCc1c(CO)cnc(C)c1OC1OC(CO)C(O)C(O)C1O (stereo not given)", "target_or_test_system": "DMS 114 small cell lung", "TGI": "> 100 µM"}
{"molecule": "C=CCCCn1ccc2ccccc21", "target_or_test_system": "DMS 114 small cell lung", "TGI": "> 100 µM"}
{"molecule": "CC(=O)NC(CCCCN(Cc1ccccc1)C(=O)NCCCl)C(=O)NCc1ccccc1 (stereo not given)", "target_or_test_system": "DMS 114 small cell lung", "TGI": "> 100 µM"}
{"molecule": "COc1cc(Br)c(CC2(C#N)c3ccccc3C3C(N2C(=O)c2ccccc2)C3(Cl)Cl)cc1OC (stereo not given)", "target_or_test_system": "DMS 114 small cell lung", "TGI": "> 65.5 µM"}
